# TARGET_UNDER_TEST: T1, Cyno ST2-fc (cyno; human, UniProt A0A2K5UDB8 19-331)
# T1 construct: also called cyno ST2 fused with a human IgG1 Fc tag at the C-terminus
# T1 sequence: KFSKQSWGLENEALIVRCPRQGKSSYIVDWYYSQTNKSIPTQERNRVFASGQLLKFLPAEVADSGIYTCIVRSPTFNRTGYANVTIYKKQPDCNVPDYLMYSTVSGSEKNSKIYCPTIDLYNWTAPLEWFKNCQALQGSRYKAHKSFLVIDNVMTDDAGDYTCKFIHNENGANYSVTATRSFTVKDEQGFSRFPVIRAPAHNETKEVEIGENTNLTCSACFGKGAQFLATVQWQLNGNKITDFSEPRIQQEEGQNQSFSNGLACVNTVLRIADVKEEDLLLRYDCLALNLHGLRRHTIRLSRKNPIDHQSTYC
# ASSAY: SPR Biacore X100, antibody on CM5, cyno ST2-fc analyte
METRIC_NAME: Kd (nM)
Express your answer in nM, writing the number without its unit.

Here's what some known entries look like.
{"BINDER": "5888-116H1+L1 (antibody, V domains shown, murine antibody) VH: QVQLQQSGAELVRPGASVTLSCKASGYTFTDSEMYWVRLTPVHGLEWIGAIDPETGDTAFNQKFKGKATLTADKSSSTAYMELRSLTSEDSVVYYCTRAFDNDNDDGFAYWGQGTLVTVSA VL: QIVMTQSPAIMSASPGEKVTMTCSASSSVNYMHWYQQKSGTSPKRWIYDTSKLASGVPARFSGSGSGTSYSLTISSMEAEDAATYYCQQWSSNPLTFGAGTKLELK", "MEASURED": 0.0469}
{"BINDER": "Control antibody CNTO7160 (antibody, human IgG4 S228P, kappa, V domains shown) VH: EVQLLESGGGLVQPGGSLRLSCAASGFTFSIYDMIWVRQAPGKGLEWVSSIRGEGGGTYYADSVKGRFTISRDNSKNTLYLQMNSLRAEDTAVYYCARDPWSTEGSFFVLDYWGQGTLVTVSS VL: EIVLTQSPATLSLSPGERATLSCRASQSVDDDLAWYQQKPGQAPRLLIYDASNRATGIPARFSGSGSGTDFTLTISSLEPEDFAVYYCQQYITAPLTFGQGTKVEIKR", "MEASURED": 0.136}

Q. Please give the measured Kd for this binder: 5888-153H1+L2 (antibody, V domains shown, murine antibody) VH: QVQLQQSGAELVRPGASVTLSCKASGYTFTDYELHWVKQTPVHGLEWIGTIDPETGDTVYNQKFKAKAILTADKSSSTAYMEFRSLTSEDSAVCYCTRAFYNDYDDGFAYWGQGTLVTVSA VL: QIVMTQTPAIMSASPGEKVTMTCSVSSSVSYMHWYQQKSGTSPKRWIYDTSKLASGVPARFSGSGSGTSYSLTINNMEAEDAATYYCQQWNSSPLTFGAGTKLELK
A. 0.143
